Values were extracted from patent US9125913B2.

# Test system: GST-Bcl-2
# procedureText: TR-FRET binding assay, Bcl-2
# runConditions: TR-FRET Ki values
observationType: Binding selectivity ratio (Bcl-XL Ki/Bcl-2 Ki)

Completed entries (count: 3):
C#Cc1cc(S(=O)(=O)NC(=O)c2ccc(N3CCN(CC4=C(c5ccc(Cl)cc5)CC(C)(C)CC4)CC3)cc2Oc2cccc3[nH]ccc23)cnc1OCC1CCOCC1	>186.4
CC1(C)CCC(CN2CCN(c3ccc(C(=O)NS(=O)(=O)c4ccc(NC5CCN(CCn6cccn6)CC5)c([N+](=O)[O-])c4)c(Oc4ccc5[nH]ccc5c4)c3)CC2)=C(c2ccc(Cl)cc2)C1	>2357.6
O=C(NS(=O)(=O)c1ccc(NCC2CCOCC2)c(S(=O)(=O)C(F)(F)F)c1)c1ccc(N2CCN(Cc3cc(OCCCN4CCCCC4)ccc3-c3ccc(Cl)cc3)CC2)cc1Oc1ccccc1	>858.3

Problem: Fetch value of Binding selectivity ratio (Bcl-XL Ki/Bcl-2 Ki) on GST-Bcl-2 for CN1CCC(Nc2ccc(S(=O)(=O)NC(=O)c3ccc(N4CCN(CC5=C(c6ccc(Cl)cc6)CCC5)CC4)cc3Oc3cccc4[nH]ccc34)cc2[N+](=O)[O-])CC1 .
Result: >228.4

Problem: Provide the reported Binding selectivity ratio (Bcl-XL Ki/Bcl-2 Ki) (system: GST-Bcl-2) for CC1(C)CCC(CN2CCN(c3ccc(C(=O)NS(=O)(=O)c4ccc(NCCC(F)(F)F)c([N+](=O)[O-])c4)c(Oc4ccc5[nH]ccc5c4)c3)CC2)=C(c2ccc(Cl)cc2)C1
Result: >445.7

Problem: Write Binding selectivity ratio (Bcl-XL Ki/Bcl-2 Ki) of CC1(C)CCC(CN2CCN(c3ccc(C(=O)NS(=O)(=O)c4ccc(NC5CCN(Cc6cscn6)CC5)c([N+](=O)[O-])c4)c(Oc4ccc5[nH]ccc5c4)c3)CC2)=C(c2ccc(Cl)cc2)C1 ; system used: GST-Bcl-2
Result: >718.8

---

# Test system: GST-Bcl-2
# procedureText: TR-FRET binding assay, Bcl-2
# runConditions: TR-FRET Ki values
observationType: Binding selectivity ratio (Bcl-XL Ki/Bcl-2 Ki)

As a guide, the following entries are already answered.
O=C(NS(=O)(=O)c1ccc(NCC2CCOCC2)c([N+](=O)[O-])c1)c1ccc(N2CCN(CC3=C(c4ccc(Cl)cc4)CCN(CCCO)C3)CC2)cc1Oc1cccc2[nH]ccc12	>5489.5
CC1(C)CCC(CN2CCN(c3ccc(C(=O)NS(=O)(=O)c4ccc(NCCC(F)(F)F)c([N+](=O)[O-])c4)c(Oc4cccc5[nH]ccc45)c3)CC2)=C(c2ccc(Cl)cc2)C1	>695.2
CC1(C)CCC(CN2CCN(c3ccc(C(=O)NS(=O)(=O)c4ccc(N[C@@H]5CCN(Cc6ccccc6)C[C@@H]5O)c([N+](=O)[O-])c4)c(Oc4ccc5[nH]ccc5c4)c3)CC2)=C(c2ccc(Cl)cc2)C1	>2003.9
CC1(C)CCC(CN2CCN(c3ccc(C(=O)NS(=O)(=O)c4cnc(NCC5CCOCC5)c(-c5nccs5)c4)c(Oc4cccc5[nH]ccc45)c3)CC2)=C(c2ccc(Cl)cc2)C1	>612.9

Problem: Quote Binding selectivity ratio (Bcl-XL Ki/Bcl-2 Ki) reported for CC1(C)CCC(CN2CCN(c3ccc(C(=O)NS(=O)(=O)c4ccc(N5CCOCC5)c([N+](=O)[O-])c4)c(Oc4ccc5[nH]ccc5c4)c3)CC2)=C(c2ccc(Cl)cc2)C1 please.
Result: >199.1
